// provenance: paper PMC7011996

RECORDED_METRIC: Ki (nM)
# unit: nM | format: bare number

Give Ki only, for `NS(=O)(=O)c1ccc(CC[n+]2c(-c3ccccc3)cc(-c3ccccc3)cc2-c2ccccc2)cc1` , using UniProt O43570 data. 12.5
